system: Trypanosoma cruzi; test: WHO-TDR: Chagas disease; format: functional, organism-based, Homo sapiens; details: MRC5
Listed next: entries and their corresponding IC50.
Only the number, expressed in µg/mL, is required.

O=C(Nc1nc2c(s1)CCCC2C(=O)NCCC1=CCCCC1)c1ccccc1 (configuration not stated) : 3.45
COc1ccc(Cl)c2sc(N(CCCN(C)C)C(=O)c3ccco3)nc12 : 1.36
CCC(=O)c1c(NC(=O)c2ccc(C)cc2)sc2c1CCN(CC)C2 : 0.479

[in] Entry O=C(Nc1nc(-c2ccccn2)cs1)C1CCN(S(=O)(=O)c2ccc(Cl)cc2)CC1 : reported IC50 = ?
[out] 4.3

[in] Entry CCC(C(=O)Nc1cc(-c2cn3nc(OC)ccc3n2)ccc1Cl)c1ccccc1 (configuration not stated) : reported IC50 = ?
[out] 8.38

[in] Quick one: IC50 of O=C(Nc1nc(-c2ccc3c(c2)OCCO3)cs1)C1CCN(S(=O)(=O)c2ccc(Cl)cc2)CC1 ?
[out] 0.697

[in] Recorded IC50 for Cc1ccc(NC(=O)CN2CCC(C(=O)NCCc3c[nH]c4ccccc34)CC2)c(C)c1 , please?
[out] 4.92

[in] I'd like to know its IC50. The molecule in question is COc1cccc2sc(Nc3nc4ccc(NC(C)=O)cc4s3)nc12
[out] 0.388

[in] Name the reported IC50 value associated with the molecule O=C(CCC1CCCCC1)N1CCN(c2ccc(-c3cccnc3)nn2)CC1
[out] 4.89

[in] For the molecule shown here, CCCN1C(=O)CCc2cc(NS(=O)(=O)c3ccc(F)cc3)ccc21 , give the reported IC50.
[out] 10.9

[in] Item CN1CCN(C(CNC(=O)c2c(F)cccc2F)c2ccsc2)CC1 (configuration not stated) has what recorded IC50?
[out] 0.406

* * *

Here, each record is paired with measured IC50 data.
tested on: Trypanosoma brucei brucei; assay: WHO-TDR: Human African Trypanosomiasis (HAT); assay type: functional, organism-based; conditions: Squib-427
Expressed in µg/mL, but write only the number.

[in] Look at this compound and give its reported IC50. CN(C)CCCN(C(=O)c1ccc(Br)s1)c1nc2cc3c(cc2s1)OCCO3
[out] 5.04

[in] Tell me the measured IC50 of CCOc1ccc2nc(N(CCN(C)C)C(=O)c3cc4ccccc4cc3OC)sc2c1 , please.
[out] 0.35

* * *

test: WHO-TDR: Cytotoxicity; type: toxicity, cell-based; conditions: human, MRC5 cells
IC50: recorded values

Below: 3 compounds and their reported IC50.
O=C(Cc1csc(SCC(=O)c2ccccc2)n1)NCCC1=CCCCC1 : > 12 µg/mL
Cc1ccccc1OCC(=O)NCCS(=O)(=O)N1CCN(Cc2ccccc2)CC1 : > 14 µg/mL
Cc1ccc(SCCC(=O)Nc2cc(Cl)cc(Cl)c2)cc1 : > 10.2 µg/mL

[in] Which IC50 is listed for CN(C)CCCN(C(=O)CCOc1ccccc1)c1nc2c(F)cccc2s1 ?
[out] 1.94 µg/mL

[in] Requested read-out: IC50. Entry: CCOc1ccccc1NC(=O)Cn1c(=O)n(Cc2cccs2)c(=O)c2ncccc21
[out] > 13.1 µg/mL

[in] Value lookup for IC50; key = O=C(CSc1nnc(NC(=O)c2ccccc2C(F)(F)F)s1)Nc1ccc2c(c1)OCO2
[out] 3.97 µg/mL

[in] Can you share its IC50? I mean this compound: CCc1nnc(NS(=O)(=O)c2ccc(NC(=O)c3nc4ccccc4s3)cc2)s1
[out] > 13.4 µg/mL

[in] If you can, please state the reported IC50 value of CCOC(=O)c1ccc(NC(=O)CSc2c(C)[nH]c3ccccc23)cc1 .
[out] > 11.1 µg/mL

[in] Look at this compound and give its reported IC50. COc1ccc(CC(=O)NCCS(=O)(=O)N2CCN(c3ncccn3)CC2)cc1OC
[out] > 13.5 µg/mL

[in] Entry COC(=O)c1c(NC(=O)c2cc3ccccc3oc2=O)sc2c1CCN(Cc1ccccc1)C2 has what IC50?
[out] 8.92 µg/mL
